Hi there, I'd appreciate the recorded melting point for every entry that follows.

>  <Compound String>
COn1c(C(C)(C)C)nc2c(N)nc3ccccc3c21

>  <melting point>
195 to 197 °C

$$$$
>  <Compound String>
CC(C)On1c(C(C)(C)C)nc2c(N)nc3ccccc3c21

>  <melting point>
187 to 189 °C

$$$$
>  <Compound String>
Nc1nc2ccccc2c2c1nc(-c1ccccc1)n2OCc1ccccc1

>  <melting point>
177 to 179 °C

$$$$
>  <Compound String>
COn1cnc2c(N)nc3ccccc3c21

>  <melting point>
238 to 240 °C

$$$$
>  <Compound String>
CCCCc1nc2c(N)nc3ccccc3c2n1OC(C)C

>  <melting point>
118 to 119 °C

$$$$
>  <Compound String>
CCOCc1nc2c(N)nc3ccccc3c2n1OC(C)C

>  <melting point>
179 to 181 °C

$$$$
>  <Compound String>
CC(C)On1c(CO)nc2c(N)nc3ccccc3c21

>  <melting point>
204 to 206 °C

$$$$

Now for a further compound.
So for Cc1nc2c(N)nc3ccccc3c2n1OCc1ccccc1[N+](=O)[O-] , the logged melting point turned out to be 215 to 217 °C
